# Test system: Streptococcus Group A
# protocol: in vitro antibacterial activity, agar dilution
# Assay type: cell-based
# details: strain C203; read-out: Minimum Inhibitory Concentration
compounds and their reported MIC
Report the value in µg/mL with no unit label.

> print(dat)
                                  molsmiles  readoutnumber
1  CO/N=C(\C(=O)N[C@@H]1C(=O)N2C(C(=O)O)=C(CSc3nnn(Cc4nnn[nH]4)n3)CS[C@H]12)c1csc(N)n1           0.03
2  CO/N=C(\C(=O)N[C@@H]1C(=O)N2C(C(=O)O)=C(CSc3nnnn3Cc3nnn[nH]3)CS[C@H]12)c1csc(N)n1           0.06
3  Cn1nnnc1Cn1nnnc1SCC1=C(C(=O)O)N2C(=O)[C@@H](NC(=O)Cc3cccs3)[C@H]2SC1              1

Then there is this compound:
The compound CO/N=C(\C(=O)N[C@@H]1C(=O)N2C(C(=O)O)=C(CSc3nnnn3Cc3nnnn3C)CS[C@H]12)c1csc(N)n1 on Streptococcus Group A: MIC was 0.03
